Assayed Target: Hexokinase-4 (Homo sapiens)
Test Summary: Activation of human recombinant glucokinase expressed in Escherichia coli BL21(DE3) coexpressing G6PDH assessed as glucose 6-phosphate formation by spectrometric analysis relative to control
Item-by-item account of fold change (FC)
Answer with a number only.

INSERT INTO assay_data (structure, experimental_result) VALUES
  ('CC(C)=CCOc1cc(Oc2ccc(S(=O)(=O)C3CC3)cc2)cc(C(=O)Nc2nc(C(C)(C)C)cs2)c1', 0.7),
  ('CC(C)=CCOc1cc(Oc2ccc(S(=O)(=O)C3CC3)cc2)cc(C(=O)NC2=NC(=O)CS2)c1', 1.5),
  ('COC1CCN(S(=O)(=O)c2ccc(Oc3cc(OCC=C(C)C)cc(C(=O)Nc4ncc(F)s4)c3)cc2)CC1', 1.7),
  ('CC(C)=CCOc1cc(Oc2ccc(S(=O)(=O)C3CC3)cc2)cc(C(=O)Nc2cnc(C)cn2)c1', 1.6),
  ('CC(C)=CCOc1cc(Oc2ccc(S(=O)(=O)N3CCOCC3)cc2)cc(C(=O)Nc2cc(C)n(C)n2)c1', 1.5),
  ('CC(C)=CCOc1cc(Oc2ccc(S(=O)(=O)N3CC[C@H](F)C3)cc2)cc(C(=O)Nc2nccs2)c1', 1.9),
  ('CC(C)=CCOc1cc(Oc2ccc(S(=O)(=O)N3CC4CCC(C3)O4)cc2)cc(C(=O)Nc2ccn(C)n2)c1', 1.7),
  ('CC(C)=CCOc1cc(Oc2ccc(S(=O)(=O)N3CC4CCC(C3)O4)cc2)cc(C(=O)Nc2nccs2)c1', 1.7),
  ('CC(C)=CCOc1cc(Oc2ccc(S(=O)(=O)N3C[C@@H](C)O[C@@H](C)C3)cc2)cc(C(=O)Nc2ncc(F)s2)c1', 1.7),
  ('CC(C)=CCOc1cc(Oc2ccc(S(=O)(=O)C3CC3)cc2)cc(C(=O)Nc2ncc(F)s2)c1', 1.8);

CC(C)=CCOc1cc(Oc2ccc(S(=O)(=O)N3CCOCC3)cc2)cc(C(=O)Nc2ncc(F)s2)c1 has a reported fold change (FC) of 1.8

CC(C)=CCOc1cc(Oc2ccc(S(=O)(=O)N3CC[C@H](F)C3)cc2)cc(C(=O)Nc2ccn(C)n2)c1 has a reported fold change (FC) of 2.1

CC(C)=CCOc1cc(Oc2ccc(S(=O)(=O)N3CC[C@H](F)C3)cc2)cc(C(=O)Nc2ncc(F)s2)c1 has a reported fold change (FC) of 2.2

###

Test Summary: Cmax in ICR mouse at 20 mg/kg, po
Type: ADME, organism-based
Set-up: dose 20 mg/kg, route oral
Measurement Context: in vivo
Endpoint Label: Cmax (ng/mL)
The figure you give is taken to be in ng/mL; do not add the unit.

INSERT INTO assay_data (structure, unit_tag, experimental_result) VALUES
  ('CC(C)=CCOc1cc(Oc2ccc(S(=O)(=O)N3CC[C@H](F)C3)cc2)cc(C(=O)Nc2ncc(F)s2)c1', 'ng/mL', 1090);

CC(C)=CCOc1cc(Oc2ccc(S(=O)(=O)C3CC3)cc2)cc(C(=O)Nc2nccs2)c1 has a reported Cmax of 15800

###

Item-by-item account of Vd
Test Summary: Volume of distribution at steady state in ICR mouse at 10 mg/kg, iv
Type: ADME, organism-based
Design: dose 10 mg/kg, route intravenous
Measurement Context: in vivo, read-out: Vdss
The figure you give is taken to be in L/kg; do not add the unit.

INSERT INTO measurements (structure, endpoint_label, experimental_result) VALUES
  ('CC(C)=CCOc1cc(Oc2ccc(S(=O)(=O)C3CC3)cc2)cc(C(=O)Nc2nccs2)c1', 'Vd', 0.28);

Kindly review the next molecule as well.
CC(C)=CCOc1cc(Oc2ccc(S(=O)(=O)N3CC[C@H](F)C3)cc2)cc(C(=O)Nc2ncc(F)s2)c1 has a reported Vd of 1.2

###

Assayed Target: Hexokinase-4 (Homo sapiens, UniProt P35557)
Test Summary: Activation of human recombinant glucokinase expressed in Escherichia coli BL21(DE3) coexpressing G6PDH assessed as glucose 6-phosphate formation by spectrometric analysis
Endpoint Label: pEC50
# pEC50: negative log10 of molar concentration; output just the value

INSERT INTO assay_data (structure, assayed_target, endpoint_label, experimental_result) VALUES
  ('CC(C)=CCOc1cc(Oc2ccc(S(=O)(=O)N3CC[C@H](F)C3)cc2)cc(C(=O)Nc2ncc(F)s2)c1', 'Hexokinase-4 (Homo sapiens, UniProt P35557)', 'pEC50', 7.35),
  ('CC(C)=CCOc1cc(Oc2ccc(S(=O)(=O)N3C[C@@H](C)O[C@@H](C)C3)cc2)cc(C(=O)Nc2cc(C)n(C)n2)c1', 'Hexokinase-4 (Homo sapiens, UniProt P35557)', 'pEC50', 7.35);

COC1CCN(S(=O)(=O)c2ccc(Oc3cc(OCC=C(C)C)cc(C(=O)Nc4cc(C)n(C)n4)c3)cc2)CC1 has a reported pEC50 of 6.34

CC(C)=CCOc1cc(Oc2ccc(S(=O)(=O)C3CC3)cc2)cc(C(=O)Nc2nc(-c3ccc(F)cc3)cs2)c1 has a reported pEC50 of 6.60

###

Test Summary: Clearance in ICR mouse at 10 mg/kg, iv
Assay type: ADME, organism-based
Design: dose 10 mg/kg, route intravenous
Measurement Context: in vivo
Endpoint Label: clearance
Please provide the amount together with its unit, number first.

INSERT INTO assay_data (structure, endpoint_label, experimental_result) VALUES
  ('CC(C)=CCOc1cc(Oc2ccc(S(=O)(=O)C3CC3)cc2)cc(C(=O)Nc2nccs2)c1', 'clearance', '3.33 mL/min/kg');

Kindly review the next molecule as well.
CC(C)=CCOc1cc(Oc2ccc(S(=O)(=O)N3CC[C@H](F)C3)cc2)cc(C(=O)Nc2ncc(F)s2)c1 has a reported clearance of 17.8 mL/min/kg

###

Assayed Target: Hexokinase-4 (Homo sapiens)
Sequence (whole entry): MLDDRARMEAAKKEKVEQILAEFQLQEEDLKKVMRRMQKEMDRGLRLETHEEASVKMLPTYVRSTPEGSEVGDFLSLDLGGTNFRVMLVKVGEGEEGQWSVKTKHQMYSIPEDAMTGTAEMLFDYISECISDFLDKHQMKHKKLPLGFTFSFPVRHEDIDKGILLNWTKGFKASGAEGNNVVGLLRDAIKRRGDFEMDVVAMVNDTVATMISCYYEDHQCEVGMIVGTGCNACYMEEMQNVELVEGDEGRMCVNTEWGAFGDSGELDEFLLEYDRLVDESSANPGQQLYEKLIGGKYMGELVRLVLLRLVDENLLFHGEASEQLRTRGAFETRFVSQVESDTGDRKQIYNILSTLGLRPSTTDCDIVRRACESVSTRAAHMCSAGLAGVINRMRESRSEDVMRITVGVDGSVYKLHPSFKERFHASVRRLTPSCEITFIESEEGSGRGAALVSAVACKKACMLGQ
Test Summary: Activation of human recombinant glucokinase expressed in Escherichia coli BL21(DE3) coexpressing G6PDH assessed as glucose 6-phosphate formation by spectrometric analysis relative to control
Item-by-item account of fold change (FC)
Answer with a number only.

INSERT INTO assay_data (structure, endpoint_label, experimental_result) VALUES
  ('CC(C)=CCOc1cc(Oc2ccc(S(=O)(=O)N3C[C@@H](C)O[C@@H](C)C3)cc2)cc(C(=O)Nc2nccs2)c1', 'fold change (FC)', 1.5),
  ('COC1CCN(S(=O)(=O)c2ccc(Oc3cc(OCC=C(C)C)cc(C(=O)Nc4cc(C)n(C)n4)c3)cc2)CC1', 'fold change (FC)', 1.8),
  ('CC(C)=CCOc1cc(Oc2ccc(S(=O)(=O)N3C[C@@H](C)O[C@@H](C)C3)cc2)cc(C(=O)Nc2ccn(C)n2)c1', 'fold change (FC)', 1.8),
  ('CC(C)=CCOc1cc(Oc2ccc(S(=O)(=O)C3CC3)cc2)cc(C(=O)Nc2nccs2)c1', 'fold change (FC)', 2.4),
  ('CC(C)=CCOc1cc(Oc2ccc(S(=O)(=O)N3CC4CCC(C3)O4)cc2)cc(C(=O)Nc2cc(C)n(C)n2)c1', 'fold change (FC)', 1.5);

CC(C)=CCOc1cc(Oc2ccc(S(=O)(=O)C3CC3)cc2)cc(C(=O)Nc2nc(-c3ccc(F)cc3)cs2)c1 has a reported fold change (FC) of 0.9

CC(C)=CCOc1cc(Oc2ccc(S(=O)(=O)N3CCOCC3)cc2)cc(C(=O)Nc2ccn(C)n2)c1 has a reported fold change (FC) of 3

CC(C)=CCOc1cc(Oc2ccc(S(=O)(=O)N3CC4CCC(C3)O4)cc2)cc(C(=O)Nc2ncc(F)s2)c1 has a reported fold change (FC) of 1.9

CC(C)=CCOc1cc(Oc2ccc(S(=O)(=O)C3CC3)cc2)cc(C(=O)Nc2cc(C)n(C)n2)c1 has a reported fold change (FC) of 1.5

CC(C)=CCOc1cc(Oc2ccc(S(=O)(=O)N3C[C@@H](C)O[C@@H](C)C3)cc2)cc(C(=O)Nc2cc(C)n(C)n2)c1 has a reported fold change (FC) of 1.6
